assay: Anticancer human tumor 997537-175-T-J1-PDC patient-derived colon adenocarcinoma cell line growth inhibition [POLQ]; conditions: 997537-175-T-J1-PDC complex spheroid viability, combination with POLQ inhibitors; second compound 1 µM; first compound 0.316 µM; stronger effect = lower value;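 further: luminescence signal used as a surrogate for viable cells; spheroids exposed to drugs for seven days before readout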

compound: CC1COCCN1c1cc(C2(S(C)(=N)=O)CC2)nc(-c2ccnc3[nH]ccc23)n1 (stereo not drawn) + Cc1cccc(N(C)C(=O)C2C(O)CCN2c2nc(C)cc(C(F)(F)F)c2C#N)c1
viability, T/C, %: 80.3

compound: COc1cc(C2c3cc4c(cc3C(OC3OC5COC(C)OC5C(O)C3O)C3COC(=O)C23)OCO4)cc(OC)c1O (stereo not drawn) + COC1C(OC(N)=O)C(O)C(Oc2ccc3c(O)c(NC(=O)c4ccc(O)c(CC=C(C)C)c4)c(=O)oc3c2C)OC1(C)C
viability, T/C, %: 110

compound: COc1cccc(OCCCN)c1-c1cc(Nc2cnc(C#N)cn2)n[nH]1 + Nc1ccc(C#CCN(C(=O)Cc2ncc(C(F)(F)F)cc2C(F)(F)F)c2ccc(F)cc2)nn1
viability, T/C, %: 40.6
